assayed_system: ACAT 2 (Mus musculus)
Construct: The source of ACAT 2 enzyme used was a membrane fraction derived from mouse liver microsome; from tissue; host or cells: mouse liver (microsome fraction)
Sequence (O88908 whole entry): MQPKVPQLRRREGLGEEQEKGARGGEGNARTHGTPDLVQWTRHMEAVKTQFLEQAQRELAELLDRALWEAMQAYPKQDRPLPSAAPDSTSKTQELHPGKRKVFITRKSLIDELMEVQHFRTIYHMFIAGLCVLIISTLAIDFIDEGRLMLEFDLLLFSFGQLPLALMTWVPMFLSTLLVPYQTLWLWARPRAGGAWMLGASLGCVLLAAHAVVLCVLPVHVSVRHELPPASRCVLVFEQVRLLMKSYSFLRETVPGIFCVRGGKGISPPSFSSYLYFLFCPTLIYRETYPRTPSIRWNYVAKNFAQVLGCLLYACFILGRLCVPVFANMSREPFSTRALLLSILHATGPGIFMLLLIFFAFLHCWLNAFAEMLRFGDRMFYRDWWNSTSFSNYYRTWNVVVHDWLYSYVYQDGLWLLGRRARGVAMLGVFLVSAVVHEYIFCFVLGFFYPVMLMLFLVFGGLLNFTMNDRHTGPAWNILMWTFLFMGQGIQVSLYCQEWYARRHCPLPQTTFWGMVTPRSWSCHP
test_name: ACAT-inhibiting activity, mouse liver microsome membrane fraction, [14C]oleoyl-CoA
Type: biochemical
test_context: mouse liver microsome, 5 minutes at 37° C.
pIC50: −log10 of the molar value.
measured_property: pIC50

COc1ccc(CCCC(=O)O[C@H]2CC3C(C)(COC(C)=O)[C@@H](OC(C)=O)CC[C@]3(C)C3[C@@H](O)c4c(cc(-c5cccnc5)oc4=O)O[C@@]32C)cc1 (stereo partly drawn)	> 8.00
CC12CO[Si](C(C)(C)C)(C(C)(C)C)O[C@H]1CC[C@@]1(C)C2C[C@H](OC(=O)c2ccc(C#N)cc2)[C@@]2(C)Oc3cc(-c4cccnc4)oc(=O)c3[C@H](OC(=O)c3ccc(C#N)cc3)C12 (stereo partly drawn)	6.00 to 7.00
CC(=O)OCC1(C)C2C[C@H](OC(=O)CCc3ccccc3)[C@@]3(C)Oc4cc(-c5cccnc5)oc(=O)c4[C@H](O)C3[C@@]2(C)CC[C@@H]1OC(C)=O (stereo partly drawn)	> 8.00
CC(=O)OCC1(C)C2C[C@H](OC(=O)c3ccc(O)cc3)[C@@]3(C)Oc4cc(-c5cccnc5)oc(=O)c4[C@H](O)C3[C@@]2(C)CC[C@@H]1OC(C)=O (stereo partly drawn)	6.00 to 7.00
COc1ccccc1C(=O)O[C@H]1CC2C(C)(COC(C)=O)[C@@H](OC(C)=O)CC[C@]2(C)C2[C@@H](O)c3c(cc(-c4cccnc4)oc3=O)O[C@@]21C (stereo partly drawn)	7.00 to 8.00
C=Cc1cccc(C(=O)O[C@H]2CC3C(C)(COC(C)=O)[C@@H](OC(C)=O)CC[C@]3(C)C3[C@@H](O)c4c(cc(-c5cccnc5)oc4=O)O[C@@]32C)c1 (stereo partly drawn)	> 8.00

Tell me pIC50 reported for COCCOCOCC(=O)O[C@H]1CC2C(C)(COC(C)=O)[C@@H](OC(C)=O)CC[C@]2(C)C2[C@@H](O)c3c(cc(-c4cccnc4)oc3=O)O[C@@]21C (stereo partly drawn)
6.00 to 7.00

Please indicate pIC50 recorded for CC(C)C(=O)OCC1(C)C2C[C@H](OC(=O)c3ccc(C#N)cc3)[C@@]3(C)Oc4cc(-c5cccnc5)oc(=O)c4[C@H](O)C3[C@@]2(C)CC[C@@H]1OC(=O)C(C)C (stereo partly drawn)
7.00 to 8.00

Complete the entry with pIC50 for COc1ccccc1C(=O)O[C@H]1CC2C3(C)COC(c4ccccc4)O[C@H]3CC[C@]2(C)C2[C@@H](O)c3c(cc(-c4cccnc4)oc3=O)O[C@@]21C (stereo partly drawn)
7.00 to 8.00

Return value of pIC50 for input CC(=O)OCC1(C)C2C[C@H](OC(=O)c3ccccc3F)[C@@]3(C)Oc4cc(-c5cccnc5)oc(=O)c4[C@H](O)C3[C@@]2(C)CC[C@@H]1OC(C)=O (stereo partly drawn) , no commentary.
7.00 to 8.00

###

System: apolipoprotein E-deficient mice
test_name: Total plasma cholesterol after 14 days of daily oral administration, high-fat feed
Type: in vivo
test_context: 50 mg/kg oral daily, day 14; day 0 taken as 100%; control 212.2%
measured_property: total plasma cholesterol at day 14 (% of day 0)

CC(C)C(=O)OCC1(C)C2C[C@H](OC(=O)c3ccc(C#N)cc3)[C@@]3(C)Oc4cc(-c5cccnc5)oc(=O)c4[C@H](O)C3[C@@]2(C)CC[C@@H]1OC(=O)C(C)C (stereo partly shown)	86.1%
CC(=O)OCC1(C)C2C[C@H](OC(=O)c3ccc(C#N)cc3)[C@@]3(C)Oc4cc(-c5cccnc5)oc(=O)c4[C@H](O)C3[C@@]2(C)CC[C@@H]1OC(C)=O (stereo partly shown)	132.5%

Write down measured total plasma cholesterol at day 14 (% of day 0) (apolipoprotein E-deficient mice) for this compound. CC(=O)OCC1(C)C(OC(C)=O)CCC2(C)C1CC(OC(C)=O)C1(C)Oc3cc(-c4cccnc4)oc(=O)c3C(O)C21 (stereo not shown) [Pyripyropene A, reference compound]
174.0%

For apolipoprotein E-deficient mice, give total plasma cholesterol at day 14 (% of day 0) of the listed compound: CC12COC(c3ccccc3)O[C@H]1CC[C@@]1(C)C2C[C@H](OC(=O)c2ccc(C#N)cc2)[C@@]2(C)Oc3cc(-c4cccnc4)oc(=O)c3[C@H](O)C12 (stereo partly shown)
101.1%
